Data origin: ChEMBL document CHEMBL3039007

biological target: Solute carrier organic anion transporter family member 1B3 (Homo sapiens, UniProt Q9NPD5); conditions: chinese hamster, cho, 10 µM
Sequence (Q9NPD5 whole entry): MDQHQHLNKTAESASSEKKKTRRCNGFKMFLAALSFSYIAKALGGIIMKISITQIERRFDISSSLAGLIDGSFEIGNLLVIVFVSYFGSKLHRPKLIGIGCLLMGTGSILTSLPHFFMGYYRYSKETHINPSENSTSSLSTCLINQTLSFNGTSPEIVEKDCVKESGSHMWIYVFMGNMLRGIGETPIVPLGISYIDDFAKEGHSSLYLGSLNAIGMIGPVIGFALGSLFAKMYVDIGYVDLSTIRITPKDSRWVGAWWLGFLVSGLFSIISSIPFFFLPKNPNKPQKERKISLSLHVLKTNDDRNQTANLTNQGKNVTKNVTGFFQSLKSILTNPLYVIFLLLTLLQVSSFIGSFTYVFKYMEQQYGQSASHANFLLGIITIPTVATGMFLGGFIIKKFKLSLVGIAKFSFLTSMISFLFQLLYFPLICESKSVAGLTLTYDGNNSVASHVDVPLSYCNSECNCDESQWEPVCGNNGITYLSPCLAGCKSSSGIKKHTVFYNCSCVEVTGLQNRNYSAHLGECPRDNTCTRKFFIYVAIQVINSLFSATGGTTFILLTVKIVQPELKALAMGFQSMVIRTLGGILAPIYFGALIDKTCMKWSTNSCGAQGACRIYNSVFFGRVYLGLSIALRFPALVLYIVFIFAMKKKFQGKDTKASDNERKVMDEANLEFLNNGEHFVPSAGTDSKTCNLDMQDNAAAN
reported property: residual activity (%)

>  <compound>
CC[S+]([O-])CCSP(=O)(OC)OC (stereo not drawn)

>  <reported property>
residual activity

>  <result>
94.08

$$$$
>  <compound>
N=C(N)NCCCCN.O=S(=O)(O)O [AGMATINE SULFATE]

>  <reported property>
residual activity

>  <result>
110

$$$$
>  <compound>
CN[C@H](CC(C)C)C(=O)N[C@H]1C(=O)N[C@@H](CC(N)=O)C(=O)N[C@H]2C(=O)N[C@H]3C(=O)N[C@H](C(=O)N[C@H](C(=O)O)c4cc(O)cc(O)c4-c4cc3ccc4O)[C@H](O)c3ccc(c(Cl)c3)Oc3cc2cc(c3O[C@@H]2O[C@H](CO)[C@@H](O)[C@H](O)[C@H]2O[C@H]2C[C@](C)(N)[C@H](O)[C@H](C)O2)Oc2ccc(cc2Cl)[C@H]1O.Cl [VANCOMYCIN HYDROCHLORIDE]

>  <reported property>
residual activity

>  <result>
103.2

$$$$
>  <compound>
NC(=O)c1ccc[n+]([C@@H]2O[C@H](COP(=O)([O-])OP(=O)(O)OC[C@H]3O[C@@H](n4cnc5c(N)ncnc54)[C@H](OP(=O)(O)O)[C@@H]3O)[C@@H](O)[C@H]2O)c1

>  <reported property>
residual activity

>  <result>
105.1

$$$$
>  <compound>
CC(=O)N[C@H]1[C@H]([C@@H](O)[C@H](O)CO)O[C@@](O)(C(=O)O)C[C@@H]1O

>  <reported property>
residual activity

>  <result>
91.96

$$$$
>  <compound>
COc1ccc(-c2oc3ccccc3c(=O)c2O)cc1OC [3-HYDROXY-3',4'-DIMETHOXYFLAVONE]

>  <reported property>
residual activity

>  <result>
106.3

$$$$
>  <compound>
CC1=CC2C(C(C)C)CC[C@@](C)(O)C2CC1 (stereo partly drawn)

>  <reported property>
residual activity

>  <result>
88.94

$$$$
>  <compound>
COc1cc2c(cc1OC)-c1cc3ccc(OC)c(OC)c3c[n+]1CC2.[Cl-] [PALMATINE CHLORIDE]

>  <reported property>
residual activity

>  <result>
97.62

$$$$
>  <compound>
COc1ccc2c(c1)c(CC(=O)OCC(=O)O)c(C)n2C(=O)c1ccc(Cl)cc1

>  <reported property>
residual activity

>  <result>
84.99

$$$$
>  <compound>
C=C[C@H]1CN2CC[C@H]1C[C@@H]2[C@@H](O)c1ccnc2ccc(OC)cc12.O=C(O)[C@H](O)[C@@H](O)[C@H](O)[C@H](O)CO [QUINIDINE GLUCONATE]

>  <reported property>
residual activity

>  <result>
122

$$$$
>  <compound>
CC(C)[C@]12O[C@H]1[C@@H]1O[C@@]13[C@@]1(C)CCC4=C(COC4=O)[C@@H]1C[C@@H]1O[C@@]13C2=O [TRIPTONIDE]

>  <reported property>
residual activity

>  <result>
84.23

$$$$
>  <compound>
CC1(C)C=CC(=O)[C@]2(C)[C@H]3CC[C@@]4(C)[C@H](c5ccoc5)OC(=O)[C@H]5O[C@]54[C@]3(C)C(=O)C[C@@H]12

>  <reported property>
residual activity

>  <result>
89.62

$$$$
>  <compound>
CC(C)(C)NC[C@H](O)COc1nsnc1N1CCOCC1.O=C(O)/C=C\C(=O)O [TIMOLOL MALEATE]

>  <reported property>
residual activity

>  <result>
102.2

$$$$
